The following molecules are listed with their measured diameter of the growth inhibition, F89 values.
Test system: N. gonorrhoeae F89 (high-level cefixime and ceftriaxone resistance)
assay overview: Disk diffusion assay, N. gonorrhoeae F89
Format: cell-based
experimental context: 20 μg per disc; disc 6 mm
Experimental: An assay was performed on two strains of Acinetobacter Baumannii: antibiotic susceptible strain (Sus. A.b. Isolate), and multidrug-resistant strains (MDR A.b. Isolate). […] Activity is measured as the diameter (in mm) of the growth inhibition.
Express the result in mm but write the number alone.

Q: GET /values?readout=diameter of the growth inhibition, F89&system=N. gonorrhoeae F89 (high-level cefixime and ceftriaxone resistance)&item= CC(CCc1ccc(-c2ccccc2)cc1)(C(=O)NO)C(C)(O)C(F)F (single isomer, unassigned) [Example 3 Isomer B]
Result: 27

Q: Give diameter of the growth inhibition, F89 (N. gonorrhoeae F89 (high-level cefixime and ceftriaxone resistance)) of the following molecule: CC(NCCCc1ccc(-c2ccccc2)cc1)(C(=O)NO)C(C)(O)C(F)F.Cl (single isomer, unassigned) [Example 134]
Result: 36

Q: Provide value of diameter of the growth inhibition, F89 for this record tested with N. gonorrhoeae F89 (high-level cefixime and ceftriaxone resistance): CC(NCCCc1ccc(-c2ccccc2)cc1)(C(=O)NO)C(C)(O)C(F)F.Cl (single isomer, unassigned) [Example 135]
Result: 30

Q: # value lookup — system N. gonorrhoeae F89 (high-level cefixime and ceftriaxone resistance), readout diameter of the growth inhibition, F89, item CC(O)(CF)C(C)(NCCCc1ccc(-c2ccccc2)cc1)C(=O)NO.Cl (stereo not shown)
Result: 28
